# Test system: LOX IMVI
# Test name: NCI tumour cell line growth inhibition, 48 h
Active and inactive are the calls of the source. Cut-off read from the data, not from the text of the source: active = GI50 up to about 1.1 µM and inactive = higher.
Readout kind: GI50

{"columns": ["Compound", "Readout kind", "Measured result"],
 "data": [
  ["O=C(O)c1cc(O)nc(SCc2ccccc2)n1", "GI50", "> 100 µM (inactive)"],
  ["C/C=C/C(=O)N1C(=O)OC[C@@H]1c1ccccc1", "GI50", "18.2 µM (inactive)"],
  ["Nc1cc2nc(O)c(O)nc2cc1N", "GI50", "> 100 µM (inactive)"],
  ["O=C1CCC2(c3ccccc3)Nc3ccncc3N12 (configuration not stated)", "GI50", "> 10 µM (inactive)"],
  ["Cc1nc(C)c(C(=O)Nc2cccc3c2C(=O)NC3=O)cc1C(=O)Nc1cccc2c1C(=O)NC2=O", "GI50", "> 100 µM (inactive)"],
  ["COc1ccc2c(c1)nc1n2C(c2c(F)cccc2Cl)SC1 (configuration not stated)", "GI50", "6.64 µM (inactive)"],
  ["CN(C)CCC(=O)/C=C\\c1ccccc1", "GI50", "14.3 µM (inactive)"]
]}

###

# Test system: SK-MEL-5
# Test name: NCI tumour cell line growth inhibition, 48 h
The source made the active and inactive calls. No stated cut-off is given here; in the data, active = GI50 up to about 1.1 µM and inactive = higher. Residues, ends and D or L forms follow the SMILES beside them. Groups on a side chain read outwards from the residue. *: point of attachment. Cbz = O=C(OCc1ccccc1)*; Boc = CC(C)(C)OC(=O)*
Outcomes: active, inactive

{"columns": ["Compound", "Discrete label"],
 "data": [
  ["CCCc1nc(NC#N)nc(C(=O)Nc2ccccc2)c1CC", "inactive"],
  ["COc1cc2c(c(C)c1O)[C@H]1COc3ccccc3[C@H]1O2", "inactive"],
  ["NCS(=O)(=O)O", "inactive"],
  ["COC(=O)CCC(=O)c1ccc2c(c1)CC1(C2)Cc2ccc(C(=O)CCC(=O)OC)cc2C1", "inactive"],
  ["CCc1ccc(/C=C\\c2cc(OC)c(OC)c(OC)c2)cc1", "active"],
  ["COc1cc(-c2cc(=O)c3c(OC)c(OC)c(OC)c(OC)c3o2)cc(OC)c1OC", "inactive"],
  ["CC(C)CC(NC(=O)OCc1ccccc1)C(=O)NCCCCC(NC(=O)C(CCCCNC(=O)C(CC(C)C)NC(=O)OCc1ccccc1)NC(=O)C(CCCCNC(=O)C(CC(C)C)NC(=O)OCc1ccccc1)NC(=O)C(CCCCNC(=O)C(CC(C)C)NC(=O)OCc1ccccc1)NC(=O)OC(C)(C)C)C(=O)O (stereo not drawn) (Boc-K([Leu-Cbz])K([Leu-Cbz])K([Leu-Cbz])K([Leu-Cbz])-OH; configuration not given here)", "inactive"],
  ["CCOC(=O)c1csc(NC(=O)CCCC#N)n1", "inactive"]
]}

###

# Tested on: UACC-62
# Test name: NCI tumour cell line growth inhibition, 48 h
Active and inactive are the calls of the source. Cut-off read from the data, not from the text of the source: active = GI50 up to about 1.1 µM and inactive = higher.
Outcomes: y for active, n for inactive

{"columns": ["Compound", "Discrete label"],
 "data": [
  ["Cc1ccc(S(=O)(=O)Nn2c(S)c(C#N)c(-c3ccc(Cl)cc3)c(C#N)c2=O)cc1", "n"],
  ["COc1ccc(NC(=O)CC(=O)N2N=C(N3CCCCC3)CC2c2ccccc2)cc1 (configuration not stated)", "n"],
  ["C/C(=N/NC(=O)c1ccncc1)c1ccc(NC(=O)C(=O)Nn2c(S)nc3ccccc3c2=O)cc1", "n"],
  ["CN1C(=O)C(/C=N/NC(=O)c2cccnc2)C(N)N(C)C1=O (configuration not stated)", "n"],
  ["CC(C)(Oc1ccc(C(=O)c2ccc(Cl)cc2)cc1Cl)C(=O)N1CCN(CCO)CC1", "n"],
  ["N#Cc1c(N)nc2[nH]nc(N)c2c1-c1ccccc1", "n"],
  ["S=C1NC2=C(COC/C2=C\\c2ccccc2Cl)C(c2ccccc2Cl)N1 (configuration not stated)", "n"],
  ["COc1ccc2c(c1)nc1n2C(c2c(F)cccc2Cl)SC1 (configuration not stated)", "n"],
  ["O=C1CC(c2ccccc2)[S+]([O-])c2ccccc2N1 (configuration not stated)", "n"],
  ["CC(C)(C)NC(NC(C)(C)C)=C(C(Cl)=C(Cl)Cl)[N+](=O)[O-]", "n"],
  ["COC(=O)[C@@H](C)[C@H]1CC[C@@](C)(CCC2=C(C)CC3C=C(C)CCC3C2(C)C)OO1 (some centres not stated)", "n"],
  ["Cc1noc(C)c1/N=N/c1ccc2nonc2c1N", "n"],
  ["CCCCOC(=O)C(=O)C(CCC(=O)c1ccc(C)cc1)C(=O)C=C(C)C (configuration not stated)", "n"],
  ["C=C(CS(=O)(=O)c1ccccc1)C(=O)OCC", "n"],
  ["CC[C@H](C)[C@H]1NC(=O)[C@@H](NC(=O)[C@@H](CC(C)C)N(C)CC2CCCN2C(=O)C(C)=O)[C@@H](C)OC(=O)[C@H](Cc2ccc(OC)cc2)N(C)C(=O)C2CCCN2C(=O)[C@H](CC(C)C)NC(=O)[C@@H](C)C(=O)[C@H](C(C)C)OC(=O)C[C@@H]1O (some centres not stated)", "y"],
  ["O=C(/C=C/c1ccc(O)cc1)c1ccc2c(c1)OCO2", "n"],
  ["COC(=O)N/N=C(\\C)c1c(O)cc(C)oc1=O", "n"]
]}

###

# System: OVCAR-4
# Test name: NCI tumour cell line growth inhibition, 48 h
The source made the active and inactive calls. Rule as the data show it: active = GI50 up to about 1.1 µM and inactive = higher.
Possible outcomes: 1 (yes) = active, 0 (no) = inactive

{"columns": ["Molecule", "Discrete label"],
 "data": [
  ["O=C(OC[C@H]1O[C@@H](OC(=O)c2cc(O)c(O)c(O)c2)[C@H](OC(=O)c2cc(O)c(O)c(O)c2)[C@@H](OC(=O)c2cc(O)c(O)c(O)c2)[C@@H]1OC(=O)c1cc(O)c(O)c(O)c1)c1cc(O)c(O)c(O)c1 [PENTAGALLOYL GLUCOSE]", "0 (no)"],
  ["CO[C@]12CC(=O)C3(C(C[C@H]4CC5CC[C@H]6C[C@@H](OC(C)=O)CC[C@]6(OC(C)=O)C5C[C@@]43C)C1)C1C[C@H]3[C@@H]4CC[C@H]5C[C@@H](OC(C)=O)CC[C@]5(OC(C)=O)[C@H]4CC[C@]3(C)C12 (stereo partly specified)", "0 (no)"],
  ["C=C(C)[C@H]1Cc2c(ccc3c2O[C@@H]2COc4cc(OC)c(OC)cc4[C@@H]2C3=O)O1 [ROTENONE]", "1 (yes)"],
  ["CC12CC(=O)Nc3ccccc3N1C(c1ccccc1)=NO2 (stereo unspecified)", "0 (no)"],
  ["CSC1NC(c2ccccc2)=C(C#N)C(=O)N1C1OCC(OC(C)=O)C(OC(C)=O)C1OC(C)=O (stereo unspecified)", "0 (no)"],
  ["CCCCOC(=O)NC(Nc1cccc(C(F)(F)F)c1)(C(F)(F)F)C(F)(F)F", "0 (no)"]
]}

###

# Tested on: HOP-62
# Test name: NCI tumour cell line growth inhibition, 48 h
Active and inactive are the calls of the source. Rule as the data show it: active = GI50 up to about 1.1 µM and inactive = higher.
Outcomes: y (active), n (inactive)

{"columns": ["Compound", "Measured target", "Discrete label"],
 "data": [
  ["COc1ccc(C2=Nc3c(nc(OC)[nH]c3=O)NC(c3ccccc3)C2)cc1 (stereo not given)", "HOP-62", "n"],
  ["Cn1c2c(c3ccccc31)CCN(CCCCN1CCCCC1)C2=O", "HOP-62", "n"],
  ["CC(C)O/N=C/c1cc(NC(=S)OC(C)C)ccc1Cl", "HOP-62", "n"],
  ["CCCCCCCCCCCCCCCC(=O)OCC(COP(=O)(O)OCCNC(=O)CCSSc1ccccn1)OC(=O)CCCCCCCCCCCCCCC (stereo not given)", "HOP-62", "n"],
  ["O=C(O)\\C=C/C=C/C=C/C=C/C(=O)O", "HOP-62", "n"],
  ["C=CCNC1=C2C[C@@H](C)C[C@H](OC)[C@H](O)[C@@H](C)/C=C(\\C)[C@H](OC(N)=O)[C@@H](OC)/C=C\\C=C(/C)C(=O)NC(=CC1=O)C2=O", "HOP-62", "y"],
  ["Cc1cc(=O)oc2c(CNC(Cc3ccccc3)C(=O)O)c(O)ccc12 (stereo not given)", "HOP-62", "n"],
  ["CC(C)(C)C(=O)C(C#N)C(=O)C(C)(C)C", "HOP-62", "n"],
  ["N#CC(C#N)=CNC(=S)c1ccncc1", "HOP-62", "n"],
  ["COC(=O)C1CCC(=O)N1CN(C(C)=O)c1cc(OC)ccc1OC (stereo not given)", "HOP-62", "n"],
  ["CN(C)Cc1cc(/N=N/c2ccc(Cl)c(Cl)c2)ccc1O", "HOP-62", "n"],
  ["C=CCN1C(=O)/C(=C/c2ccccc2)N=C1SC/C=C/C", "HOP-62", "n"],
  ["O=C1CC2CCCC23CC2(CCN13)OCCO2 (stereo not given)", "HOP-62", "n"],
  ["O=C(O)c1ccccc1CC1Cc2ccccc2C1=O (stereo not given)", "HOP-62", "n"],
  ["CC1=C(C(=O)Nc2ccc(Cl)c(Cl)c2)C(c2ccco2)C(C(=O)Nc2ccc(Cl)c(Cl)c2)=C(C)N1", "HOP-62", "n"],
  ["CC(=O)O[C@H]1C(=O)[C@@]2(C)C(C(OC(=O)c3ccccc3)C3[C@@H](O)C(OC(=O)[C@@H](O)[C@H](NC(=O)c4ccccc4)c4ccc(C(F)(F)F)cc4)C(C)=C1C3(C)C)[C@]1(OC(C)=O)CO[C@@H]1C[C@@H]2O (stereo not given in full)", "HOP-62", "n"],
  ["CN(C)Nc1cc(=O)[nH]c(=O)[nH]1", "HOP-62", "n"],
  ["CCOC(=O)C1=C(C)NC(=O)NC1c1ccc(N(CCCl)CCCl)cc1Cl (stereo not given)", "HOP-62", "n"],
  ["COc1ccccc1NC(=S)N/N=C/c1c(C)n(C)n(-c2ccccc2)c1=O", "HOP-62", "n"],
  ["CSC1(Cc2ccccn2)C(=O)Nc2cccc([N+](=O)[O-])c21 (stereo not given)", "HOP-62", "n"]
]}
